All figures here come from patent US20250230155A1.

For each entry below, report its EC50 value.
Subject of test: human mAChR M4 (Homo sapiens, UniProt P08173)
Construct: expressed in transfected cells
Sequence (P08173 1-479): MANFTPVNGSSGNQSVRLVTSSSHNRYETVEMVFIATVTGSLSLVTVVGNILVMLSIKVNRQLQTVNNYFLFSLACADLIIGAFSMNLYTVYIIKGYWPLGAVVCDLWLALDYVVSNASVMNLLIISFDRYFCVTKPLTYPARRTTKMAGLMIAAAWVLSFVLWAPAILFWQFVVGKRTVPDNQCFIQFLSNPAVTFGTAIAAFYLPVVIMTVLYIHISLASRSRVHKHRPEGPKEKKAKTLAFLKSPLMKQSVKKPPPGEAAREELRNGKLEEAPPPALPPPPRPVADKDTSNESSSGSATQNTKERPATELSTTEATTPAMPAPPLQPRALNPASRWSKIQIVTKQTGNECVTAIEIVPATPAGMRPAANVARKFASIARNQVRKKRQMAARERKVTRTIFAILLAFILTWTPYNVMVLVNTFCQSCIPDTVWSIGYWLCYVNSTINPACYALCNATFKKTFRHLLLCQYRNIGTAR
Assay comment: mAChR M4 cell-based functional assay (calcium mobilization, CHO-K1 hM4-Gqi5 cells)
Condition info: positive allosteric modulator activity, increase in the EC20 acetylcholine response, CHO-K1 hM4-Gqi5 cells; read-out: Human M4 EC50

Examples with their reported EC50 follow.
smiles_str=Cc1c(C#N)nnc(N2CCc3ncc(-c4cnn(CCN5CCOCC5)c4)cc3C2)c1C recorded_value="2.95 µM"
smiles_str=O=C(NCc1ccncc1)c1ccc(N2CCc3ncc(C(F)(F)F)cc3C2)nn1 recorded_value="3.16 µM"
smiles_str=Cc1cc(C(N)=O)cnc1N1CCc2ncc(C(F)(F)F)cc2C1 recorded_value="0.537 µM"

Now examine the next entry.
Record summary for Cc1cc(C(=O)NCc2csc3ccccc23)cnc1N1CCc2ncc(-c3cn(C)nc3C)cc2C1 : reported EC50 = 1.79 µM

----------
For each entry below, report its Emax at 30 µM value.
Subject of test: human mAChR M4 (Homo sapiens)
Construct: expressed in transfected cells
Sequence (P08173 1-479): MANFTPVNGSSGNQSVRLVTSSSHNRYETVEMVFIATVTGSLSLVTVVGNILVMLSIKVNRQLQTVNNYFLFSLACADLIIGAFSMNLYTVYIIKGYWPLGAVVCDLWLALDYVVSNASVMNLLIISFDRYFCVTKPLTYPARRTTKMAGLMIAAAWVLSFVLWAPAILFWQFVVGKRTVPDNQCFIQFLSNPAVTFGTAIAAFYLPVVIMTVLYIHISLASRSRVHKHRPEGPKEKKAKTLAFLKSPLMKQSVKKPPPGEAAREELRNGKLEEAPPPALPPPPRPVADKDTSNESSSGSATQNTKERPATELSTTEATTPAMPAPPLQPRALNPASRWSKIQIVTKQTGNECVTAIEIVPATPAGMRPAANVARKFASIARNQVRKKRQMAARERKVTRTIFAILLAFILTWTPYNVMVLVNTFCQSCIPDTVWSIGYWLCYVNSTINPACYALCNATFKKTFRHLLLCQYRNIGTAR
Assay comment: mAChR M4 cell-based functional assay (calcium mobilization, CHO-K1 hM4-Gqi5 cells)
Condition info: CHO-K1, % ACh maximum at 30 μM; human M4
One number for each entry, in %.

Examples with their reported Emax at 30 µM follow.
compound="Cc1nc(Cl)c(C)c(N2Cc3cc(C(F)(F)F)cnc3C(C)(C)C2)n1 [compound 257]" uom=% recorded_value=39
compound="Cc1cc(C(=O)N2CCC2)nnc1N1CCc2ncc(N3CCCn4nccc43)cc2C1 [Example 545]" uom=% recorded_value=125
compound="Cc1ccc(F)c(Oc2cnc3c(c2)CN(c2ncc(C#N)cc2C)CC3)c1 [Example 368]" uom=% recorded_value=94
compound="Cc1nc(Cl)c(C)c(N2CCc3nc(C(F)(F)F)ccc3C2)n1 [compound 218]" uom=% recorded_value=83
compound="Cc1cc(C#N)cnc1N1CCc2ncc(Nc3ccnn3C)cc2C1 [Example 306]" uom=% recorded_value=109
compound="Cc1cncc(-c2cnc3c(c2)CN(c2nnc(C#N)c(C)c2C)CC3)c1 [Example 435]" uom=% recorded_value=61

Could I get Emax at 30 µM for every one of these entries?
1. Cc1cc(C(=O)NCc2ccncc2)nnc1N1CCc2ncc(CC(F)(F)F)cc2C1 [Example 581]
2. Cc1nn(C)cc1-c1cnc2c(c1)CN(c1nc(Cl)nc3c1COC3)CC2 [compound 285]
3. Cc1cc(C(=O)NCc2ccncc2)cnc1N1CCc2ncc(-c3cnn(C)c3)cc2C1 [compound 176]
4. Cc1nc(C(F)(F)F)nc(N2CCc3ncc(C(F)(F)F)cc3C2)c1C [compound 252]

[96, 30, 89, 75]

Could I get Emax at 30 µM for every one of these entries?
1. Cc1cc(C#N)nnc1N1CCc2ncc(N3CCO[C@H](C)C3)cc2C1 [Example 397]
2. Cc1c(C#N)nnc(N2CCc3ncc(-c4cccnc4C(F)(F)F)cc3C2)c1C [compound 50]
3. Cc1cc(C#N)cnc1N1CCc2ncc(-c3cc(F)cc(F)c3C)cc2C1 [Example 597]
4. Cc1nc(NC2CC2)nc(N2CCc3ncc(Nc4ccnn4C)cc3C2)c1C [compound 278]
5. Cc1c(C#N)nnc(N2CCc3ncc(-c4cncnc4)cc3C2)c1C [compound 49]
6. Cc1cc(C#N)nnc1N1Cc2cc(N3CCOCC3)cnc2C(C)C1 (stereo not drawn) [Example 404]
7. Cc1cc(C#N)cnc1N1CCc2ncc(-n3nccc3C)cc2C1 [Example 345]

[72, 68, 69, 95, 60, 72, 86]

Emax at 30 µM value, target or system human mAChR M4 (Homo sapiens), for Cc1cc(C(=O)NCc2ccncc2F)nnc1N1CCc2ncc(C(F)(F)F)cc2C1 [Example 496] : 102
